Data credit: the supplement of paper PMC9170038

Catalogue of sequences with associated apparent KD of MS2 coat protein
tested on: MS2 coat protein; experiment: apparent KD of MS2 coat protein; designed switch direction (-1 OFF switch, 1 ON switch): -1; higher = weaker reporter binding; details: input ligand: none
MEASUREMENT TYPE: apparent KD of MS2 coat protein (nM)

{"columns": ["PRIMARY SEQUENCE", "MEASUREMENT TYPE", "QUANTITATIVE READOUT"],
 "data": [
  ["UUUUGACAUGAGGAUCACCCAUGUUAGGAUAUCUUAAGGGAUGGAACAGGGUCGGAACAGAGAAGGAGCGUGGG [EX1 B.26] (Eterna round: R97, puzzle: Exclusion 1)", "apparent KD of MS2 coat protein", 47.9],
  ["AAGAAGAAACAAGCUUUUUGCACGUCAUAUAGUGACGCAACAUGAGGAUCACCCAUGUAUAGGGUGGGAAAGGAUAG [JR_SV3TOV2_Sub047] (Eterna round: R96, puzzle: Sensor v3, turn-off variant 2)", "apparent KD of MS2 coat protein", 826],
  ["AAUUAGUGAGGAUAUUUUAACAGUGGUAGUAGACAGUGGAUGAAGAAGGCACAUGAGGAUCACCCAUGUUAUAA [EX4 #55] (Eterna round: R97, puzzle: Exclusion 4)", "apparent KD of MS2 coat protein", 147],
  ["UUUUUAUAUGAAGGAUAUACUUAACAUGAGGAUCACCCAUGUGGUGUUGUGAGUGAGUGAGUUUAGUAGAAGGUCAAUGAUUAU [JMF's solution 59] (Eterna round: R96, puzzle: Exclusion NG 2)", "apparent KD of MS2 coat protein", 321],
  ["AUUUUGUGAGGAUAUUAGUUGUAGAAAAUUGUUAGUAUAGCUGAGAAGGCACAUGAGGAUCACCCAUGUACAAC [JR_Ex4_Sub040] (Eterna round: R97, puzzle: Exclusion 4)", "apparent KD of MS2 coat protein", 18.1],
  ["CUUAAAAGGAAGGAUAUGCUAGACGAAAGUCUAGCAGAAGGUCCUACAUGAGGAUCACCCAUGUGUCCUGUAAG [Mat - Exclusion 6 - Eli Mod - D41] (Eterna round: R97, puzzle: Exclusion 6)", "apparent KD of MS2 coat protein", 53.9],
  ["UUUAUAUAGUAAGGAUAUGUAUUAUUGUUAUCAACAGAAGGUACUGACAUGAGGAUCACCCAUGUUUUAGUGUGGGCAUGUAGU [JMF's solution 96] (Eterna round: R96, puzzle: Exclusion NG 1)", "apparent KD of MS2 coat protein", 446],
  ["ACAUGAGGAUCACCCAUGUCCGGCUGGUCUGUUCCGGCUGUCGAGGAUAUAGUCCGGUGUUCGCGCUAGAAGGCGGGAGCUGGA [Aenatbe mod 51] (Eterna round: R96, puzzle: Exclusion NG 3)", "apparent KD of MS2 coat protein", 46.2],
  ["CCUCCCGCCGUCAGGAUAUGCCGUACCGCUGCGCUCCAGAAGGCACUUGAGGAUCACCCAAGUACCCGUGAGGC [salish99_bmod_ex4_r4_009] (Eterna round: R97, puzzle: Brourd's mod of Exclusion 4)", "apparent KD of MS2 coat protein", 16.1],
  ["GCCGUAAGUGUGAGGAUAUACCUAUGGAAACAUAGGUAGAAGGCACAUGAGGAUCACCCAUGUUCUCAAUCGGC [Mat - Exclusion 4 - Eli Mod - D5] (Eterna round: R97, puzzle: Brourd's mod of Exclusion 4)", "apparent KD of MS2 coat protein", 245],
  ["GCUAGACAUGUCAGGAUAUGCUGUACCUUGGUACAGCAGAAGGGACAUGAGGAUCACCCAUGUGCCUAUCUAGC [JL-BMX4-4.05] (Eterna round: R97, puzzle: Brourd's mod of Exclusion 4)", "apparent KD of MS2 coat protein", 43.6],
  ["ACAUGUUGCGCAGGAUAUGAGACACAUGAGGAUCACCCAUGUGGCUACAUGUCAUACCAAGCGUCUCAGAAGGGUGUGAACAUG [Ex NG2 #34] (Eterna round: R96, puzzle: Exclusion NG 2)", "apparent KD of MS2 coat protein", 18.1]
]}
